System: diphenylhydantoin rabbit antiserum
assay_summary: Effect of organic solvents on antiserum-coated polypropylene tubes: residual binding of radioiodinated tracer, diphenylhydantoin antiserum
details: tracer bound after solvent 3 hours at 50° C., tracer 45 minutes at 37° C.

compound	subject_of_test	% Binding, %
CCOCC [Ether, ether]	diphenylhydantoin rabbit antiserum	33
CCOC(C)=O [Ethyl Acetate, ethyl acetate]	diphenylhydantoin rabbit antiserum	38
CC(C)=O [Acetone, acetone]	diphenylhydantoin rabbit antiserum	43
c1ccccc1 [Benzene, benzene]	diphenylhydantoin rabbit antiserum	34

* * *

System: cortisol rabbit antiserum
assay_summary: Effect of organic solvents on antiserum-coated polypropylene tubes: residual binding of radioiodinated tracer, cortisol antiserum
details: tracer bound after solvent 3 hours at 50° C., tracer 45 minutes at 37° C.
Method: 1 ml of petroleum ether, benzene, ether, ethyl acetate or acetone was added to a selection of cortisol, thyroxine, diphenylhydantoin and estriol rabbit antiserum-coated polypropylene tubes. The solvent level in the tubes was sufficient to immerse the antiserum coated region at the bottom of the tubes. The solvents were equilibrated with atmospheric water vapor. […] The percent binding was calculated by dividing the bound counts by the total counts added.
The molecules listed here are annotated with their % Binding.
endpoint_name: % Binding (%)

molecule	endpoint_name	result_unit	value_observed
CCOC(C)=O [Ethyl Acetate, ethyl acetate]	% Binding	%	54
c1ccccc1	% Binding	%	56
CC(C)=O	% Binding	%	55
CCOCC	% Binding	%	55
